All figures here come from the supplement of paper PMC10201428.

- Tested on: VchCAST RNA-guided transposition machinery (E. coli BL21(DE3) host, lacZ target)
- assay_explanation: relative integration efficiency (T-LR orientation) vs wild-type transposon end (log2 (normalized fold change)); transposon end mutated: right end (5 bp flank + 75 bp right end); higher = more efficient transposition
Quick rule: relative integration efficiency (log2) of at least -0.4 means Met, below that means Not met.

Examples from the recorded data:
{"construct_sequence": "ACATTTGTTGATACAACCATATATTGATATCTCCAACCATAAGTTGATATTTTTCACAACCATAAAATGATAATTACTCTGATCATAGTCAGACCAACATTGCTACGACCCGTATTCGCACCGACAC", "cat": "Not met"}
{"construct_sequence": "ACATTTGTTGATACAACCATAAAAGGATCATTACCCCCATCAATTGATAATTATCACACCCCATTTAACTATAACGCTCTGATCATAGTCAGACCAACATTGCTACGACCCGTATTCGCACCGACAC", "cat": "Not met"}
{"construct_sequence": "ACATTTGTTGATACAACCATAAAATGATAATTACACCCATAAATTGATAATTCGCACACCCATAAATTGATATTGCCTCTGATCATAGTCAGACCAACATTGCTACGACCCGTATTCGCACCGACAC", "cat": "Met"}
{"construct_sequence": "ACATTTGTTGATACAACCATAAAATGATAATTACACCCATAAATTGATAATTATCAGTGGCATAAATTGATATTGCCTCTGATCATAGTCAGACCAACATTGCTACGACCCGTATTCGCACCGACAC", "cat": "Met"}

Now look at this entry.
Input line: Reported relative integration efficiency (log2) at or above -0.4? ACATTTGTTGATACAACCATAAAATGATCATTACCCCCATCAATTGATAATTATCACACCCCATTTAACTATAACGCTCTGATCATAGTCAGACCAACATTGCTACGACCCGTATTCGCACCGACAC
Output line: Not met

###

- Test system: VchCAST RNA-guided transposition machinery (E. coli BL21(DE3) host, lacZ target)
- assay_explanation: relative integration efficiency (T-RL orientation) vs wild-type transposon end (log2 (normalized fold change)); transposon end mutated: right end (5 bp flank + 75 bp right end); higher = more efficient transposition
observed_property: relative integration efficiency (log2)
Write the value as a bare number.

Examples from the recorded data:
{"construct_sequence": "ACATTTGTTGATACAACCATAAGTTGATATTTTCAACCATATATTGATATCTCTCACAACCATATATTGATATCTCCTCTGATCATAGTCAGACCAACATTGCTACGACCCGTATTCGCACCGACAC", "observed_property": "relative integration efficiency (log2)", "result_number": -0.28}
{"construct_sequence": "ACATTTGTTGATACAACCATAAAATGATAATTACTCTGATCATCACCCATAAATTGATAATTATCACACCCATAAATTGATATTGCAGTCAGACCAACATTGCTACGACCCGTATTCGCACCGACAC", "observed_property": "relative integration efficiency (log2)", "result_number": -4.28}

Input line: Fill in the recorded relative integration efficiency (log2) for this sequence, with VchCAST RNA-guided transposition machinery (E. coli BL21(DE3) host, lacZ target) as test system: ACATTTGTTGATACAACCATAAAATGATAATTACTCTGATCATAGTCAGACCAACATTGCTACGACCCGTATTCGCACCGACACAACGCACCCATAAATTGATAATTATCAGTGGGTATTTAACTAT
Output line: -1.4

###

- System: VchCAST RNA-guided transposition machinery (E. coli BL21(DE3) host, lacZ target)
- assay_explanation: relative integration efficiency (T-LR orientation) vs wild-type transposon end (log2 (normalized fold change)); transposon end mutated: left end; higher = more efficient transposition
observed_property: relative integration efficiency (log2)
Write the value as a bare number.

{"construct_sequence": "AATGTTGTTGATGCAACCATAAAGTGATATTTAATAATTGGCAGTGAGCGCAACGCAATTCACAAAACAACCATATATTGATATCTCACAAAACAACCATAAGTTGATATTTTTGTGAATCGAGTATTTCAGCAAAACTACTGCAGTAAGAA", "result_number": -3.88}

Input line: What does the data say about its relative integration efficiency (log2)? Entry: AATGTTGTTGATGCAACCATAAAGTGATATTTAATAATTATTTATAATCACAACCATATATTGATATCTCACAAAACAACCATAAGTTGATATTTTTGTGAATCGAGTATTTCAGCAAAACTACTGCAGTAAGAAAGTTACTTCGTGGTATG
Output line: -5.27

Input line: What does the data say about its relative integration efficiency (log2)? Entry: AATGTTGTTGATGCAACCATATATTGATATCTCATAATTATTTATAATCAGCAACTTAACCACAAAACACCCATAAATTGATATTGCACAAAAGTTGGTATTCAACTATAAAATGTGAATCGAGTATTTCAGCAAAACTACTGCAGTAAGAA
Output line: -2.2

Input line: What does the data say about its relative integration efficiency (log2)? Entry: AATGTTGTTGATGCACCCATAAATTGATATTGCATAATTATTTATAATCAGCAACTTAACCACAAAACAACCATATATTGATATCTCACAAAAGTTGGTATTCAACTATAAAATGTGAATCGAGTATTTCAGCAAAACTACTGCAGTAAGAA
Output line: -1.64

###

- Test system: VchCAST RNA-guided transposition machinery (E. coli BL21(DE3) host, lacZ target)
- assay_explanation: relative integration efficiency (T-RL orientation) vs wild-type transposon end (log2 (normalized fold change)); transposon end mutated: left end; higher = more efficient transposition
observed_property: relative integration efficiency (log2)
Write the value as a bare number.

Examples from the recorded data:
{"construct_sequence": "AATGTTGTTGATGCAACCATAAAGTGATAGGGCCGCCGGCGGGCGCCGACTACCAGGCCAACACCCCACCAACGCGCGGTCGCGAGACACCCCACCAACGCCTGGTCGCGGGGGTGTCCGATCTGATTTCAGCAAAACTACTGCAGTAAGAA", "relative integration efficiency (log2)": -7.44}
{"construct_sequence": "TTTTGTGTTGAAACAACCATAAAGTGATAACAACGAATCAATTAAAATCATAGGCTTAATCGAAAAACAACCATATATTGATATCTCATAAAACAACCATAAGTTGATATTTTGGTGAAAAGGATATTCCAACCTTCATAGTTTAGTAAGAA", "relative integration efficiency (log2)": 0.184}
{"construct_sequence": "AATGTTGTTGATGACCAACGCCTGGTCGCGGGGATAATTATTTATAATCAGCAACTTAACCACAAAACAACCATATATTGATATCTCACAAAACAACCATAAGTTGATATTTTTGTGAATCGAGTATTTCAGCAAAACTACTGCAGTAAGAA", "relative integration efficiency (log2)": -8.86}

Consider now this further sequence.
Input line: What does the data say about its relative integration efficiency (log2)? Entry: AATGTTGTTGATGCAACCATAAAGTGATATTTAATCAACCATAAAGTGATATTTAACTTAACCACAACAACCATATATTGATATCTCACAAAACAACCATAAGTTGATATTTTTGTGAATCGAGTATTTCAGCAAAACTACTGCAGTAAGAA
Output line: -4.54

###

- Test system: VchCAST RNA-guided transposition machinery (E. coli BL21(DE3) host, lacZ target)
- assay_explanation: relative integration efficiency (T-LR orientation) vs wild-type transposon end (log2 (normalized fold change)); transposon end mutated: right end (5 bp flank + 75 bp right end); higher = more efficient transposition
Quick rule: relative integration efficiency (log2) of at least 1 means Y, below that means N.

Examples from the recorded data:
{"construct_sequence": "ACATTTGTTGATACAACCATAAAGTGATATTTACAACCATAAAATGATAATTATCAGTGGGTATTTAACTATAACGCTCTGATCATAGTCAGACCAACATTGCTACGACCCGTATTCGCACCGACAC", "cat": "Y"}
{"construct_sequence": "ACATTTGTGGATACAACCATAAAATGATAATTACACCCATAAATTTATTATTATCACACCCAATTTAACTATAACGCTCTGATCATAGTCAGACCAACATTGCTACGACCCGTATTCGCACCGACAC", "cat": "Y"}

Input line: Reported relative integration efficiency (log2) at or above 1? ACATTTGTTGATACAACCATAAAATGATAATTACACCCATAAATTGATAATTATCACAAAACTAAATTGATATTGCCTCTGATCATAGTCAGACCAACATTGCTACGACCCGTATTCGCACCGACAC
Output line: Y

Input line: Reported relative integration efficiency (log2) at or above 1? ACATTTGTTGATACAACCATAAAATCATAATTACCCCCATCAATTGATAATTATCCCACCCAATTTAACTATAACGCTCTGATCATAGTCAGACCAACATTGCTACGACCCGTATTCGCACCGACAC
Output line: N

Input line: Reported relative integration efficiency (log2) at or above 1? TGATTTGTTGATACAACCATAAAATGATAATTACACCCATAAATTGATAATTATCACACCCATAAATTGATATTGCCTCTGATCATAGTCAGACCAACATTGCTACGACCCGTATTCGCACCGACAC
Output line: N
